Catalogue of sequences with associated Inhibition rate (%) LRRC4B (amino acids 36-576)-hFc
# subjectOfTest: binding of FAM19A5 protein to full-length ectodomain of the LRRC4B protein (amino acids 36-576 of SEQ ID NO: 2) (Homo sapiens, UniProt Q7Z5A7)
# Sequence (Q7Z5A7 44-132): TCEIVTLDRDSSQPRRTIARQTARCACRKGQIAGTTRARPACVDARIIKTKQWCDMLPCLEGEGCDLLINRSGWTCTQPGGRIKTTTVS
# testSummary: Competitive inhibition assay, plate coated with full-length ectodomain of LRRC4B (amino acids 36-576)
# particulars: Table 10; alanine/asparagine mutants
Dear colleague, please return just the value in %, with no unit written.

GYTYFTTVTVENLETQPGEE [FB-20[N11]] = 74.1
GYTYFTTVTVETAETQPGEE [FB-20[A12]] = 73.0
GATYFTTVTVETLETQPGEE [FB-20[A1]] = 17.2
GYTYFTTVTNETLETQPGEE [FB-20[N9]] = 17.5
GYTYFTTVTVETLETQPGEE [FB-20] = 77.0
GNTYFTTVTVETLETQPGEE [FB-20[N1]] = 11.9

We next turn to a different sequence, shown below.
Task: Any idea what Inhibition rate (%) LRRC4B (amino acids 36-576)-hFc was measured for GYTAFTTVTVETLETQPGEE [FB-20[A3]] ?
Output: 5.9
